Data provenance is paper PMC9948161.

Measured pIC50 accompanies every entry in the list below.
# target under test: VEGFR2 kinase (Homo sapiens, UniProt P35968)
# Sequence (P35968 20-1356): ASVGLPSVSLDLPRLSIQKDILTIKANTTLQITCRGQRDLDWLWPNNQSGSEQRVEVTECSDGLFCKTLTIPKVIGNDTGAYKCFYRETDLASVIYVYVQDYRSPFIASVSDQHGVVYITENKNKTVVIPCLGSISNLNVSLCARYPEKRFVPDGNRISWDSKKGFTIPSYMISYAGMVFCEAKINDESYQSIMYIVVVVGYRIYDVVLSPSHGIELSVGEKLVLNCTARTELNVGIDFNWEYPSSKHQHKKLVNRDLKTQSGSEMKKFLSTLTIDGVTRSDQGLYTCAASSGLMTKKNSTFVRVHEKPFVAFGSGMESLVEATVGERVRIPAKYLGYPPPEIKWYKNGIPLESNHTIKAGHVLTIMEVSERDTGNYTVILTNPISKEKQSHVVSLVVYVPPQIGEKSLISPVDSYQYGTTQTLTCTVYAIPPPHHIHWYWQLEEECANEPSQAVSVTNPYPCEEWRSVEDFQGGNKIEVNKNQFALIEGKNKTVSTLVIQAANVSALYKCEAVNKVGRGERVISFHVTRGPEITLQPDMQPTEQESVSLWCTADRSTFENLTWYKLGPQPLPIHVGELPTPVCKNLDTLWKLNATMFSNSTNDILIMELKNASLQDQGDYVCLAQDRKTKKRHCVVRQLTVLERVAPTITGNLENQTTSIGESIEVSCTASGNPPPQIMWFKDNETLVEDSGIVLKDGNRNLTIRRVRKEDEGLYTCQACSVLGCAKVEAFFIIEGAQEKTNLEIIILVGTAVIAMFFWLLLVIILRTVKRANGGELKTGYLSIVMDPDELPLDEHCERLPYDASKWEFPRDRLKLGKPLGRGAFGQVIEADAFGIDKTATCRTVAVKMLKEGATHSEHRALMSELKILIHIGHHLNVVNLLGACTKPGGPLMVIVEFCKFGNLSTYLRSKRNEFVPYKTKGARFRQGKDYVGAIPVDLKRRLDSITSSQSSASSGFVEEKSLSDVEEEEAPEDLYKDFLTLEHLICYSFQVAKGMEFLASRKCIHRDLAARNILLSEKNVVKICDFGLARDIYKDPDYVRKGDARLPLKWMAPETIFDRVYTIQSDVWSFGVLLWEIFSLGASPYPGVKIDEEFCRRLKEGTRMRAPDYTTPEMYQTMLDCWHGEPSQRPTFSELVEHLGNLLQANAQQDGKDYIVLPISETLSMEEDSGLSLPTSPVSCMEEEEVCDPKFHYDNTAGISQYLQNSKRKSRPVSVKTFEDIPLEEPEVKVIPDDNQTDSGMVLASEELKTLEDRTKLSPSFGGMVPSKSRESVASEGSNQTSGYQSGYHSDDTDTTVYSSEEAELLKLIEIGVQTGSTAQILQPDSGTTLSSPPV
A value of pIC50 is the negative decimal logarithm of a concentration given in moles per litre.

A selection of reference data follows.
{"compound": "O=C(CC1Sc2ccccc2NC1=O)c1ccc(F)cc1 (stereo not drawn) [Compound 2a]", "value": 7.13}
{"compound": "CCOC(=O)CN1C(=O)C(CC(=O)c2ccc(F)c(F)c2)Sc2ccccc21 (stereo not drawn) [Compound 3b]", "value": 6.63}
{"compound": "O=C(CC1Sc2ccccc2NC1=O)c1ccc(Cl)c(Cl)c1 (stereo not drawn) [Compound 2e]", "value": 6.87}
{"compound": "Cc1ccc(C(=O)CC2Sc3ccccc3NC2=O)cc1Cl (stereo not drawn) [Compound 2f]", "value": 7.01}
{"compound": "CCOC(=O)CN1C(=O)C(CC(=O)c2ccc(F)cc2)Sc2ccccc21 (stereo not drawn) [Compound 3a]", "value": 6.20}

From here, focus on the item given below.
*Q* For the compound O=C(CC1Sc2ccccc2NC1=O)c1ccc(F)c(F)c1 (stereo not drawn) [Compound 2b] , report pIC50.
*A* 7.23
